The reported numbers originate from the supplement of paper PMC10065799.

Target: FGFR3 (UniProt P22607)
Sequence (P22607 whole entry, looked up): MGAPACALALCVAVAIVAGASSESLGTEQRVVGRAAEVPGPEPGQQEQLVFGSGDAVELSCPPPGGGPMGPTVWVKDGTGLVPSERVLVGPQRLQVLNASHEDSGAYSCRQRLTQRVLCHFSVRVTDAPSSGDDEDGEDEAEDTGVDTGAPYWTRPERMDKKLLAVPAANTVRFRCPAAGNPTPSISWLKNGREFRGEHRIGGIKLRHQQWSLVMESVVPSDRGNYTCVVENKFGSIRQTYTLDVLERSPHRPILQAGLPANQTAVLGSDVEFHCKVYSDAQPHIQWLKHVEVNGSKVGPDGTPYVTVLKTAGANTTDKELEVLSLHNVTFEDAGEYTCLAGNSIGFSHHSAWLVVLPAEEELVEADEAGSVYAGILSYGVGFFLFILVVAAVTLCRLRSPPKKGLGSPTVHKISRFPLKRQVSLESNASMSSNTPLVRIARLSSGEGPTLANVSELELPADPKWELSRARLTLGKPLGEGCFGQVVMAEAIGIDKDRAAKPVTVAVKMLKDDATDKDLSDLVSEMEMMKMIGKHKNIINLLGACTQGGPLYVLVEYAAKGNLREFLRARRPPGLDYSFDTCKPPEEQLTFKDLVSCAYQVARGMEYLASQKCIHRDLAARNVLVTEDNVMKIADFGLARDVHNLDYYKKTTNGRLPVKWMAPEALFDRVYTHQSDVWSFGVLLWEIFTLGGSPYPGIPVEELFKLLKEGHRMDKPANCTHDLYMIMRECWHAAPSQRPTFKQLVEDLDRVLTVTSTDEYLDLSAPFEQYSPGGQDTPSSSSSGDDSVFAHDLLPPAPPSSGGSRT
Experiment: phosphorylation enrichment, bacterial display (enrichment ratio); higher = better substrate or ligand; peptides without Tyr show the background;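 note: 11-residue human phosphosite peptides and single-mutation variants displayed on the E. coli surface, counted by deep sequencing, each peptide's frequency after selection divided by its frequency in the unselected input library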;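 note: frequency after pTyr selection over input frequency; kinase dosed for 20-30% of maximal phosphorylation in three min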
outcome measure: phosphorylation enrichment

Take a look at these entries with their results.
{"sequence data": "KFRREYILSLE [GPC3_Y299_W296R_YF]", "study system": "FGFR3 (UniProt P22607)", "phosphorylation enrichment": 0.466}
{"sequence data": "RTTIHYNYMCN [TP53_Y234_C229R]", "study system": "FGFR3 (UniProt P22607)", "phosphorylation enrichment": 1.6}

List phosphorylation enrichment for every entry below, keeping the order given.
1. MKALGYFAVVT [OPA1_Y498]
2. GFSDPYVKASL [SYT3_Y470]
3. FQRITYHNWRH [PDE6B_Y556_R552Q_YF]

**A:**
[0.996, 0.4, 0.634]

List phosphorylation enrichment for every entry below, keeping the order given.
1. SIRFNYLLDVL [FGFR4_Y237_YF]
2. FSCLPYRRLAY [SLC52A2_Y305_G306R]

**A:**
[0.747, 0.758]
